test-details: Oral bioavailability in monkey at 5 mg/kg
Assay type: ADME, organism-based, Macaca mulatta
protocol-conditions: rhesus monkey, in vivo
measured-endpoint: bioavailability (%)

mol=O=C(N[C@@H]1CCCc2c1[nH]c1ccc(Cl)cc21)c1ccccn1 measured_endpoint=bioavailability measurement_units=% quantitative_readout=56

====

test-details: Cytotoxicity against HFF cells
Format: cell-based
protocol-conditions: human
measured-endpoint: CC50 (µM)

molecule="O=C(NC1CCCc2c1[nH]c1ccc(Br)cc21)c1cccc(F)c1 (racemic)" measurement_units=µM qualifier_sign== quantitative_readout=65
molecule="O=C(/C=C/c1ccccc1)NC1CCCc2c1[nH]c1ccc(Br)cc21 (stereo not given)" measurement_units=µM qualifier_sign=> quantitative_readout=40
molecule="Brc1ccc2[nH]c3c(c2c1)CCCC3Nc1ccccn1 (stereo not given)" measurement_units=µM qualifier_sign== quantitative_readout=20.7
molecule=O=C(N[C@H]1CCCc2c1[nH]c1ccc(Br)cc21)c1ccccc1 measurement_units=µM qualifier_sign== quantitative_readout=52
molecule="COc1cccc(C(=O)NC2CCCc3c2[nH]c2ccc(Br)cc32)c1 (racemic)" measurement_units=µM qualifier_sign== quantitative_readout=26
molecule="Cc1cccc(C(=O)NC2CCCc3c2[nH]c2ccc(Br)cc32)c1 (racemic)" measurement_units=µM qualifier_sign== quantitative_readout=41
molecule=O=C(N[C@@H]1CCCc2c1[nH]c1ccc(Cl)cc21)c1ccccc1 measurement_units=µM qualifier_sign== quantitative_readout=26
molecule=O=C(N[C@@H]1CCCc2c1[nH]c1ccc(Br)cc21)c1ccccc1 measurement_units=µM qualifier_sign== quantitative_readout=39
molecule="O=C(NC1CCCc2c1[nH]c1ccc(Br)cc21)c1cccnc1 (racemic)" measurement_units=µM qualifier_sign== quantitative_readout=100
molecule=O=C(N[C@@H]1CCCc2c1[nH]c1ccc(Cl)cc21)c1ccccc1F measurement_units=µM qualifier_sign== quantitative_readout=24

The reported numbers originate from ChEMBL document CHEMBL1152400.
